# ASSAYED_TARGET: hGPR120 (Homo sapiens)
# Construct: expressed in transfected cells; host or cells: CHO-K1
# Sequence (Q5NUL3 1-361): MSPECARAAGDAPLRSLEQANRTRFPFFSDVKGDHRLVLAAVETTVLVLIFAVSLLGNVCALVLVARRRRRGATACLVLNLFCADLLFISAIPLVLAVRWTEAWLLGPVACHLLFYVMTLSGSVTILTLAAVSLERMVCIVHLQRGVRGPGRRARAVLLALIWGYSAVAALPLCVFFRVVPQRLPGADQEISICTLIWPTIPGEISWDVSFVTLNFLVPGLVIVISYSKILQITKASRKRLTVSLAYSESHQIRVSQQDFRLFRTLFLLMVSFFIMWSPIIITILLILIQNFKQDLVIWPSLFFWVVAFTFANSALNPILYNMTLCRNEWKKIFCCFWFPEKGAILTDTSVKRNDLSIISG
# RUN_DESCRIPTION: Measurement of activity of GPR120 agonist (cell-based assay), calcium fluorescence
# CONDITION_INFO: CHO-K1 cells expressing Ga16 and hGPR120; Calcium 5 dye fluorescence; numeric value
Binary label based on EC50 with cut-off 200 nM: below gives Criterion met, not below gives Criterion not met.

Lookup: EC50 under 200 nM? Item: CC(C)Sc1cccc(COc2c(F)cc(C3CC3C(=O)O)cc2F)n1 (stereo not drawn)
Found: Criterion met

Lookup: EC50 under 200 nM? Item: O=C(O)CCc1ccc(OCc2cccc(SC3CCC3)n2)cc1F
Found: Criterion met

Lookup: EC50 under 200 nM? Item: CC(C)Sc1cccc(COc2ccc(CC(C)(C)C(=O)O)cc2)n1
Found: Criterion not met

Lookup: EC50 under 200 nM? Item: O=C(O)C1CC1c1ccc(OCc2cccc(SC3CCC3)n2)c(F)c1 (single isomer, unassigned) [Example 135]
Found: Criterion met

Consider now this further compound.
Lookup: EC50 under 200 nM? Item: Cc1c(CCC(=O)O)ccc(OCc2cccnc2SC(C)C)c1C
Found: Criterion met
